biological target: Bile acid receptor (Homo sapiens) (UniProt Q96RI1); test: ATG_FXR_TRANS: Attagene TRANS-FACTORIAL HepG2 Assay for Farnesoid X Receptor (FXR) (AID 2282979); conditions: HepG2 Attagene TRANS FXR-GAL4 reporter transcription;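 further: hits raise reporter mRNA above DMSO so AC50 marks FXR activation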
Sequence (Q96RI1 whole entry, looked up, the tested form may be a part): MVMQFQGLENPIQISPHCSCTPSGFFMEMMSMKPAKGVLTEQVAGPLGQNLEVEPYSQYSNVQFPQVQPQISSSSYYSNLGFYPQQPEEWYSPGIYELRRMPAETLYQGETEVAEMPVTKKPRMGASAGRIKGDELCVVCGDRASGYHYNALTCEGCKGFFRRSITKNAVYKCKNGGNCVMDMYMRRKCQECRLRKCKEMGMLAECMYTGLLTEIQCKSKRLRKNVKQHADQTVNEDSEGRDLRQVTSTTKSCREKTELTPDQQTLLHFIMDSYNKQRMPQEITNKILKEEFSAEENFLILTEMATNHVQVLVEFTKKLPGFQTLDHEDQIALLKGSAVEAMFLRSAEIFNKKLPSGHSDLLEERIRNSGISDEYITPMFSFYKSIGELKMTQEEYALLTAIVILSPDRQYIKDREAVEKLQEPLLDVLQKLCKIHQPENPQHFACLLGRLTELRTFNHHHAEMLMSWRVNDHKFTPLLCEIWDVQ
Results filed as inconclusive are left out. Active and inactive are the calls of the source. How the source made its calls: active means hit-call score of the fitted dose curve at least 0.9, where 1 is the maximum; inconclusive means response in the unintended direction; inactive means score below 0.9.
Write down one outcome, taken from yes (1) (active), no (0) (inactive)

Example entries begin here.
> print(dat)
                                    molecule    group
 1                O=[N+]([O-])c1cc(Cl)ccc1Cl   no (0)
 2                             Cc1ccc(N)cc1N   no (0)
 3  ClC1=C(Cl)C2(Cl)C3C(Cl)C(Cl)CC3C1(Cl)C2(Cl)Cl (stereo not drawn)  yes (1)
 4                            CCOP(=S)(S)OCC   no (0)
 5                     COP(=O)(CCC(=O)NCO)OC   no (0)
 6         ClC(Cl)=C(c1ccc(Cl)cc1)c1ccccc1Cl   no (0)
 7     O=C(O)C(F)(F)OC(F)(F)C(F)(F)OC(F)(F)F   no (0)
 8                             Cn1[nH]nnc1=S   no (0)
 9                               Oc1ccccc1Br   no (0)
10              O=[N+]([O-])c1ccc(Cl)c(Cl)c1   no (0)

Exercise: For this molecule, state the assay outcome: N#Cc1c(-c2ccc(Cl)cc2)[nH]c(C(F)(F)F)c1Br
Key: no (0)

Exercise: Look up the recorded call for CC1=C(C(=O)Nc2ccccc2)S(=O)(=O)CCO1 in this test.
Key: no (0)

Exercise: Hi team, can someone confirm the assay call for CC1(C)CN=C(NN=C(/C=C/c2ccc(C(F)(F)F)cc2)/C=C/c2ccc(C(F)(F)F)cc2)NC1 ?
Key: no (0)

Data provenance is PubChem BioAssay (EPA / NIEHS).
